B1: library; a variant is named by its letters at N, in order (parent)
chain: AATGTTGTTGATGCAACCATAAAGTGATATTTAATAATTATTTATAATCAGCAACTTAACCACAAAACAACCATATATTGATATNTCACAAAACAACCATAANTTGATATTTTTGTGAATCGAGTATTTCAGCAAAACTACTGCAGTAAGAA

variants of: B1; test: relative integration efficiency (T-LR orientation) vs wild-type transposon end (log2 (normalized fold change)); transposon end mutated: left end; higher = more efficient transposition; details: with VchCAST RNA-guided transposition machinery (E. coli BL21(DE3) host, lacZ target)
Parameter Measured: relative integration efficiency (log2)
Answer with the value's number alone.

What does the record list as relative integration efficiency (log2) for CG T32A A33T T86A C87G T112A T113A ? -0.463

Similarly, CC A23T G24C A77T T78A T104A ? -0.642

Similarly, CG A67T ? -0.588

Similarly, CG A11C T12G ? -1.34

Similarly, CG T31G ? -0.35

Similarly, CG A1C A2C ? -0.0923

Similarly, CG A77C T86G ? 0.141

Similarly, CG A83T ? -0.465

Similarly, CG A75T T76A ? -0.104

Similarly, CG A58T A59T C60G C61G ? -0.383

Similarly, CG A15T A16T ? -0.556

Similarly, CG T6C ? -1.5

Similarly, CG C18A A19C ? -1.46

Similarly, CG A101C ? -1.67

Similarly, TA A22T G24T T31C A33C T76A A77G C87T T104A T110A T113A ? 0.0775

Similarly, CG T113A T114A G115C T116A ? -0.0852

Similarly, CG T12A G13C C14G A15T ? -0.874

Similarly, CA ? 0.637

Similarly, CG T39G A40C ? -0.0204

Similarly, CG T74A A75T ? -0.113

Similarly, TA G24A T30A A70C T76A T86G A102T T111C T113C ? -0.456

Similarly, CG T39G ? 0.304

Similarly, TA A22T G24T T31C A33C T76A T78G C87A A102T T111C T113C ? -0.662

Similarly, CG A91C A92C ? 0.242

Similarly, CG T105G ? -0.747

Similarly, CG T12A G13A T30A T31C T32A A77C T86G ? -0.4

Similarly, CG C97G C98G A99T T100A ? -0.482

Similarly, CG T74G A75C ? -2.15

Similarly, CG C14G A15T ? -1.58

Similarly, CG A77G ? 0.0745

Similarly, CG A81C T82G A83C T84G ? -1.87

Similarly, CG T30A T31C A77C ? -0.793

Similarly, CG T12A G13A T30A T31C T32A A77C ? -1.73

Similarly, TA A16C G24T T32G A33C T76A T78G C87A T104A T110A T113A ? -0.325

Similarly, CG A70C C71A C72A A73C ? -2

Similarly, CG T84A ? -0.0315

Similarly, TA G24A T30A A70C T76A T84A C87A A96C T110A T113A ? 0.37

Similarly, CG G7C ? -0.0662

Similarly, CG ? -0.0136

Similarly, CG T74C ? -0.976

Similarly, CG A64T ? -0.053

Similarly, CG A15C A16C ? -0.641

Similarly, CG T39A A40T ? 0.255

Similarly, CT A22C A23C G24T T76G A77C T78G A102C T104G ? -4.26

Similarly, CC T104A ? -0.472
